Taken from PubChem BioAssay (NCI).

Test system: ACHN renal
Assay: NCI tumour cell line growth inhibition, 48 h; in the data active = GI50 below about 0.43 µM; inactive = the rest
Classes used: TRUE = active, FALSE = inactive

- molecule: "COC(=O)C(C)NC(=O)c1ccccc1I(OS(=O)(=O)C(F)(F)F)c1ccccc1 (stereo unspecified)"
  category_label: "FALSE"
- molecule: "CC(C)(C)c1ccc(NS(=O)(=O)c2ccc3nc(NC(=O)c4cnccn4)[nH]c3c2)cc1"
  category_label: "FALSE"
- molecule: "C=CC(COC(c1ccccc1)(c1ccccc1)c1ccccc1)N(CC)CC (stereo unspecified)"
  category_label: "FALSE"
- molecule: "CN(C)CCCn1c(-c2nonc2N)nc2cnccc21"
  category_label: "FALSE"
- molecule: "COc1ccc(Cn2cc3c(c2-c2cc(OC)c(OC)c(OC)c2)CCc2cnoc2-3)cc1"
  category_label: "FALSE"
- molecule: "CC(=O)[CH-]C(C)=O.CC(=O)[CH-]C(C)=O.CC[O-].CC[O-].[Ti+4]"
  category_label: "FALSE"
- molecule: "C[C@@H]1COCCN1c1cc(C2(O)C[C@H]3CC[C@@H](C2)O3)c2cnn(-c3ccn[nH]3)c2n1 (stereo partly specified)"
  category_label: "TRUE"
- molecule: "Cc1cc(Nc2cc(N)ncn2)c(=O)n2c1C(=O)NC21CCCCC1"
  category_label: "FALSE"
- molecule: "C=C(C(=O)O[C@H]1C(=O)C2=C(C)CCC3C(=C)C(=O)O[C@@H]3C2[C@]1(C)O)C1CC[C@]2(C)CCCC(=C)[C@H]2C1 (stereo partly specified)"
  category_label: "FALSE"
- molecule: "O=C1C(Cl)=C(Nc2cccc(O)c2)C(=O)N1Cc1ccc(Cl)cc1Cl"
  category_label: "FALSE"
- molecule: "Cc1cc(C(=O)c2ccccc2)c(C)c2c1[nH]c1ccc(Cl)cc12"
  category_label: "TRUE"

###

Test system: DU-145 prostate
Experiment: NCI tumour cell line growth inhibition, 48 h
result_type: TGI

- sample_smiles: "C=CCn1c(-c2ccc([N+](=O)[O-])cc2)csc1=N"
  result: "> 100 µM"
- sample_smiles: "O=c1ccc2ccc(O)cc2o1"
  result: "> 100 µM"
- sample_smiles: "Cc1cccc(Cc2cnc(NC(=O)CCc3ccc(C)o3)s2)c1"
  result: "> 95.8 µM"
- sample_smiles: "C=C1CN(C2=NCCO2)C1"
  result: "> 100 µM"
- sample_smiles: "Cc1cc(I)cc(CN(C)CCCN2CCN(C)CC2)c1O"
  result: "> 100 µM"
- sample_smiles: "C=CC1=C(C)C2=NC1=CC1=NC(=C(CC)/C1=C\\O)C=C1N=C3C(=C1C)C(=O)[C@H](C(=O)OC)C3=C1NC(=C2)[C@@H](C)[C@@H]1CCC(=O)O"
  result: "> 100 µM"
- sample_smiles: "COc1ccc(Nc2nc(N)c(C(=O)c3cccs3)s2)cc1"
  result: "36.3 µM"

###

System: LOX IMVI melanoma
Assay: NCI tumour cell line growth inhibition, 48 h
Catalogue of molecules with associated TGI
result_type: TGI (µM)

- molecule: "O=C(/C=C\\c1cccc2ccccc12)c1cccc2ccccc12"
  subject_of_test: "LOX IMVI melanoma"
  result_type: "TGI"
  unit_of_measure: "µM"
  relation_qualifier: "="
  result_number: 18
- molecule: "O=Nc1c(-c2c(O)[nH]c3ccc(Br)cc23)[nH]c2ccccc12"
  subject_of_test: "LOX IMVI melanoma"
  result_type: "TGI"
  unit_of_measure: "µM"
  relation_qualifier: "="
  result_number: 11
- molecule: "O=C1CC2CCC(C1)S2=O (configuration not stated)"
  subject_of_test: "LOX IMVI melanoma"
  result_type: "TGI"
  unit_of_measure: "µM"
  relation_qualifier: ">"
  result_number: 100
- molecule: "Cc1ccc(-c2cc(O)c(-c3ccc(C)cc3C)cc2O)c(C)c1"
  subject_of_test: "LOX IMVI melanoma"
  result_type: "TGI"
  unit_of_measure: "µM"
  relation_qualifier: "="
  result_number: 17.2
- molecule: "OCCN1CCN(CC/C=C2/c3ccccc3Sc3ccc(Cl)cc32)CC1"
  subject_of_test: "LOX IMVI melanoma"
  result_type: "TGI"
  unit_of_measure: "µM"
  relation_qualifier: "="
  result_number: 21.8
- molecule: "CCN(Cc1c(Cl)cccc1Cl)c1ccc(CO)c(Cl)c1"
  subject_of_test: "LOX IMVI melanoma"
  result_type: "TGI"
  unit_of_measure: "µM"
  relation_qualifier: "="
  result_number: 32.6
- molecule: "O=C(O)C(=O)/C=C(\\O)c1ccc(Br)cc1"
  subject_of_test: "LOX IMVI melanoma"
  result_type: "TGI"
  unit_of_measure: "µM"
  relation_qualifier: ">"
  result_number: 100
- molecule: "O=C(O)c1cc2ccccc2c2c1C(=O)c1ccccc1-2"
  subject_of_test: "LOX IMVI melanoma"
  result_type: "TGI"
  unit_of_measure: "µM"
  relation_qualifier: ">"
  result_number: 100
- molecule: "O=C1C(=Cc2ccc(Cl)c(Cl)c2)C([O-])=C([P+](c2ccccc2)(c2ccccc2)c2ccccc2)C([O-])=C1[P+](c1ccccc1)(c1ccccc1)c1ccccc1"
  subject_of_test: "LOX IMVI melanoma"
  result_type: "TGI"
  unit_of_measure: "µM"
  relation_qualifier: "="
  result_number: 2.67
- molecule: "O=[N+]([O-])c1cccc2nccc(NCCCO)c12"
  subject_of_test: "LOX IMVI melanoma"
  result_type: "TGI"
  unit_of_measure: "µM"
  relation_qualifier: "="
  result_number: 31.7
- molecule: "Cc1ccc(Sc2cc3c(oc2=O)-c2ccccc2OC3O)cc1 (configuration not stated)"
  subject_of_test: "LOX IMVI melanoma"
  result_type: "TGI"
  unit_of_measure: "µM"
  relation_qualifier: "="
  result_number: 40
- molecule: "CCCCCn1c(C)cc(/C=C\\c2ccc3cc(C)ccc3[n+]2C)c1C"
  subject_of_test: "LOX IMVI melanoma"
  result_type: "TGI"
  unit_of_measure: "µM"
  relation_qualifier: "="
  result_number: 1.85
- molecule: "O=C(CCCCC(=O)N/N=C\\c1ccccc1O)N/N=C\\c1ccccc1O"
  subject_of_test: "LOX IMVI melanoma"
  result_type: "TGI"
  unit_of_measure: "µM"
  relation_qualifier: ">"
  result_number: 100
- molecule: "S=c1[nH]c2ccc(I)cc2c(=S)n1Cc1ccccc1"
  subject_of_test: "LOX IMVI melanoma"
  result_type: "TGI"
  unit_of_measure: "µM"
  relation_qualifier: "="
  result_number: 16
- molecule: "CC(=O)[CH-]C(=O)c1ccccc1.CC(=O)[CH-]C(=O)c1ccccc1.CC[O-].O=C1c2ccccc2C(=O)c2c1ccc(O)c2[O-].[Ti+4]"
  subject_of_test: "LOX IMVI melanoma"
  result_type: "TGI"
  unit_of_measure: "µM"
  relation_qualifier: ">"
  result_number: 100
- molecule: "Cc1c([N+](=O)[O-])oc2ccc3ccccc3c12"
  subject_of_test: "LOX IMVI melanoma"
  result_type: "TGI"
  unit_of_measure: "µM"
  relation_qualifier: ">"
  result_number: 100
- molecule: "CCN(c1cc(C#CCN2CCOCC2)cc(C(=O)NCc2c(C)cc(C)[nH]c2=O)c1C)C1CCC(N(C)CCOC)CC1 (configuration not stated)"
  subject_of_test: "LOX IMVI melanoma"
  result_type: "TGI"
  unit_of_measure: "µM"
  relation_qualifier: ">"
  result_number: 100
- molecule: "C[N+](C)(CCNC(=O)c1cccc2cc3ccccc3nc12)Cc1ccc([N+](=O)[O-])s1"
  subject_of_test: "LOX IMVI melanoma"
  result_type: "TGI"
  unit_of_measure: "µM"
  relation_qualifier: ">"
  result_number: 25
- molecule: "O=C1C(Cl)=C(Nc2cccc(C(F)(F)F)c2)C(=O)N1Cc1ccc(Cl)cc1"
  subject_of_test: "LOX IMVI melanoma"
  result_type: "TGI"
  unit_of_measure: "µM"
  relation_qualifier: "="
  result_number: 5.15
- molecule: "Cc1c(C(=O)O)n2cnnc2c2ccccc12"
  subject_of_test: "LOX IMVI melanoma"
  result_type: "TGI"
  unit_of_measure: "µM"
  relation_qualifier: ">"
  result_number: 100
- molecule: "N.N.O=P([O-])([O-])C1(P(=O)([O-])[O-])CCCCCN1.[Pt+2]"
  subject_of_test: "LOX IMVI melanoma"
  result_type: "TGI"
  unit_of_measure: "µM"
  relation_qualifier: ">"
  result_number: 100
- molecule: "O=C1CSc2cc([N+](=O)[O-])ccc2N1"
  subject_of_test: "LOX IMVI melanoma"
  result_type: "TGI"
  unit_of_measure: "µM"
  relation_qualifier: ">"
  result_number: 100
- molecule: "CC1=NN(c2nc(N)nc(CF)n2)C(C)(C)C1"
  subject_of_test: "LOX IMVI melanoma"
  result_type: "TGI"
  unit_of_measure: "µM"
  relation_qualifier: ">"
  result_number: 100
- molecule: "CCOc1ccc2c(c1)c(=O)c1c(NCCN(CC)CC)ccc3nnn2c31"
  subject_of_test: "LOX IMVI melanoma"
  result_type: "TGI"
  unit_of_measure: "µM"
  relation_qualifier: "="
  result_number: 32
- molecule: "NCCCNCCCCN1CC1"
  subject_of_test: "LOX IMVI melanoma"
  result_type: "TGI"
  unit_of_measure: "µM"
  relation_qualifier: "="
  result_number: 11.8
- molecule: "CC(C)=CCCC(C)C1=C(O)C(=O)C(C)=CC1=O (configuration not stated)"
  subject_of_test: "LOX IMVI melanoma"
  result_type: "TGI"
  unit_of_measure: "µM"
  relation_qualifier: "="
  result_number: 15.1
- molecule: "COc1ccc2c(c1)OC[C@@H]1c3cc(O)c(OCc4ccccc4)cc3O[C@H]21"
  subject_of_test: "LOX IMVI melanoma"
  result_type: "TGI"
  unit_of_measure: "µM"
  relation_qualifier: ">"
  result_number: 100
- molecule: "O=C(O)/C(=C\\c1ccncc1)c1cccc2ccccc12"
  subject_of_test: "LOX IMVI melanoma"
  result_type: "TGI"
  unit_of_measure: "µM"
  relation_qualifier: ">"
  result_number: 100
- molecule: "O=C(NC(=S)Nc1cc(Cl)ccc1O)c1cccc(Br)c1"
  subject_of_test: "LOX IMVI melanoma"
  result_type: "TGI"
  unit_of_measure: "µM"
  relation_qualifier: ">"
  result_number: 100
- molecule: "O=C1NCCS(=O)(=O)N2CCC[C@@H]12"
  subject_of_test: "LOX IMVI melanoma"
  result_type: "TGI"
  unit_of_measure: "µM"
  relation_qualifier: ">"
  result_number: 100
- molecule: "O=C(c1ccccc1)c1c(C(F)(F)F)n([O-])c2ccc(C(F)(F)F)cc2[n+]1=O"
  subject_of_test: "LOX IMVI melanoma"
  result_type: "TGI"
  unit_of_measure: "µM"
  relation_qualifier: "="
  result_number: 0.0954
- molecule: "C=CCn1c(-c2ccc([N+](=O)[O-])cc2)csc1=N"
  subject_of_test: "LOX IMVI melanoma"
  result_type: "TGI"
  unit_of_measure: "µM"
  relation_qualifier: "="
  result_number: 70.5
- molecule: "C/C=C(/C)C(=O)O[C@H]1[C@H](O)CC(c2ccc3c(c2O)C(O)=C2C(=O)C4(OC)C(O)=C(C(N)=O)C(=O)[C@H](CC(=O)c5ccccc5O)C4CC2[C@@]3(C)OC)O[C@@H]1C (some centres not stated)"
  subject_of_test: "LOX IMVI melanoma"
  result_type: "TGI"
  unit_of_measure: "µM"
  relation_qualifier: "="
  result_number: 0.132
- molecule: "CC1(C)CC(N(C(=O)/C=C/c2ccc([N+](=O)[O-])o2)C2CCCCC2)CC(C)(C)N1"
  subject_of_test: "LOX IMVI melanoma"
  result_type: "TGI"
  unit_of_measure: "µM"
  relation_qualifier: "="
  result_number: 25.4
- molecule: "C[C@H]1COC2=C1C(=O)C(=O)c1c2ccc2c1CCCC2(C)C"
  subject_of_test: "LOX IMVI melanoma"
  result_type: "TGI"
  unit_of_measure: "µM"
  relation_qualifier: "="
  result_number: 14.4
- molecule: "CCOC(=O)N1CCC(=C2c3ccc(Cl)cc3CCc3cccnc32)CC1"
  subject_of_test: "LOX IMVI melanoma"
  result_type: "TGI"
  unit_of_measure: "µM"
  relation_qualifier: "="
  result_number: 74.6
- molecule: "O=c1ccc2ccc(O)cc2o1"
  subject_of_test: "LOX IMVI melanoma"
  result_type: "TGI"
  unit_of_measure: "µM"
  relation_qualifier: ">"
  result_number: 100
- molecule: "CCN(CC)CC(=N)N(CC)c1ccccc1"
  subject_of_test: "LOX IMVI melanoma"
  result_type: "TGI"
  unit_of_measure: "µM"
  relation_qualifier: ">"
  result_number: 100
- molecule: "COc1c(B(O)O)cc(F)cc1-c1nc2ccc3[nH]ncc3c2c2c1CCCC2"
  subject_of_test: "LOX IMVI melanoma"
  result_type: "TGI"
  unit_of_measure: "µM"
  relation_qualifier: "="
  result_number: 3.43
- molecule: "CC(O)c1cc(C(=O)N[C@@H](C)Cn2ccc(-c3ccc(C#N)c(Cl)c3)n2)n[nH]1 (some centres not stated)"
  subject_of_test: "LOX IMVI melanoma"
  result_type: "TGI"
  unit_of_measure: "µM"
  relation_qualifier: ">"
  result_number: 100
- molecule: "Cn1cccc1/C=C/c1cc(Br)c(/C=C/c2cccn2C)cc1Br"
  subject_of_test: "LOX IMVI melanoma"
  result_type: "TGI"
  unit_of_measure: "µM"
  relation_qualifier: "="
  result_number: 56.4
- molecule: "COc1cccc2c1n([O-])c1cccc(OC)c1[n+]2=O"
  subject_of_test: "LOX IMVI melanoma"
  result_type: "TGI"
  unit_of_measure: "µM"
  relation_qualifier: "="
  result_number: 27.2
